# System: HepG2
# protocol: cytotoxicity call (relative viability < 0.9)
# conditionLabel: 10 µM
Screen size: about 39,000 compounds; about 3,300 (8.5%) were called active. The sample holds actives, similar compounds and a random draw of the others, so the mix is not that of the screen.
endpointLabel: cytotoxicity call

{"compound": "C[C@H](CO)N1C[C@H](C)[C@H](CN(C)Cc2ccc(C(=O)Nc3ccccc3N)cc2)Oc2c(NC(=O)NC3CCCCC3)cccc2C1=O", "cytotoxicity call": "active"}
{"compound": "C[C@@H]1CN([C@@H](C)CO)C(=O)c2cccc(NC(=O)C3CCCCC3)c2O[C@H]1CN(C)Cc1ccc(Cl)c(Cl)c1", "cytotoxicity call": "inactive"}
{"compound": "COc1ccc(NC(=O)Nc2ccc3c(c2)C(=O)N([C@H](C)CO)C[C@@H](C)[C@@H](CN(C)Cc2ccncc2)OCCCC[C@H](C)O3)cc1", "cytotoxicity call": "inactive"}
{"compound": "COc1ccc(S(=O)(=O)N(C)C[C@@H]2Oc3ccc(NS(=O)(=O)c4c(C)noc4C)cc3C(=O)N([C@@H](C)CO)C[C@H]2C)cc1", "cytotoxicity call": "inactive"}

For each of the items listed, what is its cytotoxicity call?
1. C[C@@H]1CN([C@@H](C)CO)C(=O)c2cccc(NC(=O)C3CCCCC3)c2O[C@H]1CN(C)Cc1ccc(C(=O)Nc2ccccc2N)cc1
2. COc1ccc(NC(=O)Nc2cccc3c2O[C@H](CN(C)Cc2ccc(Cl)c(Cl)c2)[C@@H](C)CN([C@@H](C)CO)C3=O)cc1
3. C[C@H]1CN([C@@H](C)CO)C(=O)c2cccc(NC(=O)C3CCCCC3)c2O[C@H]1CN(C)Cc1ccc(C(=O)Nc2ccccc2N)cc1
4. C[C@H]1CN([C@@H](C)CO)C(=O)c2cc(NC(=O)Nc3ccc(C(F)(F)F)cc3)ccc2O[C@H]1CN(C)C(=O)Nc1ccc(C(F)(F)F)cc1
5. COc1ccc(CN(C)C[C@H]2OCCCC[C@@H](C)Oc3ccc(NC(=O)Nc4ccc(OC)cc4)cc3C(=O)N([C@H](C)CO)C[C@H]2C)cc1

Result:
1. inactive
2. inactive
3. active
4. inactive
5. active

For each of the items listed, what is its cytotoxicity call?
1. COc1ccc(NC(=O)Nc2ccc3c(c2)C(=O)N([C@@H](C)CO)C[C@H](C)[C@@H](CN(C)Cc2ccncc2)OCCCC[C@@H](C)O3)cc1
2. C[C@@H]1CN([C@@H](C)CO)C(=O)c2cccc(NC(=O)NC3CCCCC3)c2O[C@@H]1CN(C)Cc1ccc(C(=O)Nc2ccccc2N)cc1
3. COc1ccc(NC(=O)Nc2cccc3c2O[C@@H](CN(C)Cc2ccc(Cl)c(Cl)c2)[C@@H](C)CN([C@H](C)CO)C3=O)cc1
4. Cc1noc(C)c1S(=O)(=O)Nc1ccc2c(c1)C(=O)N([C@@H](C)CO)C[C@@H](C)[C@H](CN(C)C(=O)Nc1ccc(C(F)(F)F)cc1)OCCCC[C@@H](C)O2
5. C[C@H](CO)N1C[C@H](C)[C@@H](CN(C)CC2CCCCC2)OCCCC[C@H](C)Oc2ccc(NC(=O)c3ccncc3)cc2C1=O
6. C[C@@H]1CN([C@@H](C)CO)C(=O)c2cccc(NC(=O)Nc3ccccc3)c2O[C@H]1CN(C)Cc1ccc(Cl)c(Cl)c1
7. CC(C)(C)S(=O)N1Cc2cc(C(=O)NCc3ccc4c(c3)OCO4)nc(-c3cccc(C#CCC4CCCC4)c3)c2[C@@H]1CCO (stereo partly specified)

Result:
["active", "inactive", "active", "inactive", "inactive", "active", "inactive"]
